measurement target: Human HDAC5 (Homo sapiens)
Construct: full length with C-terminal His tag, MW=51.1 kDa; His (C); host or cells: baculovirus expression system
Sequence (Q9UQL6 656-1122 limits assumed): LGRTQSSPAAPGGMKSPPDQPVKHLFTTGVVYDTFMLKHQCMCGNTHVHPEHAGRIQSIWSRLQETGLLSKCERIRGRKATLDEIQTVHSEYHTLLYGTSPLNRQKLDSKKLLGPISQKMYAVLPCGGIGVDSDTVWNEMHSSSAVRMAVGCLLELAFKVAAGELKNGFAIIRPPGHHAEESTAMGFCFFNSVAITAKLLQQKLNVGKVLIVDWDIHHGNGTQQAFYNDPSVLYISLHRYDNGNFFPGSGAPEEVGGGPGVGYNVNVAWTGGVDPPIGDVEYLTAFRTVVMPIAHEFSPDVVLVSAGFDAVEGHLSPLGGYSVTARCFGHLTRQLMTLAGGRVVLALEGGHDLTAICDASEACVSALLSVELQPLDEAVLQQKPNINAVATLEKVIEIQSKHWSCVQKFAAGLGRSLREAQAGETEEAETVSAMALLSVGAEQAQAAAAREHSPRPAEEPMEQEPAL
test method notes: HDAC5 biochemical assay, class IIa-specific substrate
study conditions: read-out: HDAC Isoform IC50 (nM) 5
reported property: IC50

// below: answered molecules
>>> reported_measurement("O=C(c1cnnc(N(Cc2ccc(-c3noc(C(F)(F)F)n3)s2)c2cnccn2)c1)N1CC[S+]([O-])CC1")
"≤ 1000 nM"
>>> reported_measurement("FC(F)(F)c1nc(-c2ccc(CN(c3cnccn3)c3cc(N4CCCC4)cnn3)s2)no1")
"≤ 1000 nM"
>>> reported_measurement("O=C(c1ccc(N(Cc2ccc(-c3noc(C(F)(F)F)n3)s2)c2cnccn2)nn1)N1CCOCC1")
"≤ 500 nM"

Measured IC50 of FC(F)(F)c1nc(-c2ccc(CN(c3cnccn3)c3ccc4nccn4n3)s2)no1 : ≤ 500 nM
